details: 343.15 K; 101.33 kPa; Liquid; Alternating current cell with electrodes
PROPERTY_NAME: electrical conductivity (S/m)

compound="CCn1cc[n+](C)c1.c1c[n-]cn1 [1-ethyl-3-methylimidazolium imidazolide]" unit_descriptor=S/m quantitative_result=2.11
compound="C[n+]1ccn(CCCN)c1.c1c[n-]cn1 [1-(3-aminopropyl)-3-methylimidazolium imidazolide]" unit_descriptor=S/m quantitative_result=1.09
compound=C[n+]1ccn(CCCCn2cc[n+](C)c2)c1.c1c[n-]cn1.c1c[n-]cn1 unit_descriptor=S/m quantitative_result=0.955

(1) C[n+]1ccn(CCO)c1.c1c[n-]cn1 [1-(2-hydroxyethyl)-3-methylimidazolium imidazolide]
(2) CCCCn1cc[n+](C)c1.c1c[n-]cn1 [1-butyl-3-methylimidazolium imidazolide]
(3) C[n+]1ccn(CCn2cc[n+](C)c2)c1.c1c[n-]cn1.c1c[n-]cn1
Put the items in order so that reported electrical conductivity rises from first to last. # respond with the labels, arranged in the requested order
1, 3, 2
(1: 0.0391 S/m, 3: 0.425 S/m, 2: 1.01 S/m)

----------
conditions: 323.15 K; 101.33 kPa; Liquid; Pycnometric method
PROPERTY_NAME: mass density (kg/m3)

molecule="C[n+]1ccn(CCO)c1.c1c[n-]cn1 [1-(2-hydroxyethyl)-3-methylimidazolium imidazolide]" quantitative_result=1283.7
molecule=C[n+]1ccn(CCn2cc[n+](C)c2)c1.c1c[n-]cn1.c1c[n-]cn1 quantitative_result=1191.5
molecule="CCn1cc[n+](C)c1.c1c[n-]cn1 [1-ethyl-3-methylimidazolium imidazolide]" quantitative_result=1092.5
molecule="C[n+]1ccn(CCCN)c1.c1c[n-]cn1 [1-(3-aminopropyl)-3-methylimidazolium imidazolide]" quantitative_result=1131.8
molecule="CCCCn1cc[n+](C)c1.c1c[n-]cn1 [1-butyl-3-methylimidazolium imidazolide]" quantitative_result=1066.5
molecule=C[n+]1ccn(CCCCn2cc[n+](C)c2)c1.c1c[n-]cn1.c1c[n-]cn1 quantitative_result=1158.7

----------
settings: 293.15 K; 101.33 kPa; Liquid; Alternating current cell with electrodes
PROPERTY_NAME: electrical conductivity (S/m)

Recorded results for 3 compounds are shown here.
compound="CCCCn1cc[n+](C)c1.c1c[n-]cn1 [1-butyl-3-methylimidazolium imidazolide]" property_name="electrical conductivity" quantitative_result=0.0737
compound="C[n+]1ccn(CCO)c1.c1c[n-]cn1 [1-(2-hydroxyethyl)-3-methylimidazolium imidazolide]" property_name="electrical conductivity" quantitative_result=0.000168
compound="C[n+]1ccn(CCCN)c1.c1c[n-]cn1 [1-(3-aminopropyl)-3-methylimidazolium imidazolide]" property_name="electrical conductivity" quantitative_result=0.0842

(a) C[n+]1ccn(CCn2cc[n+](C)c2)c1.c1c[n-]cn1.c1c[n-]cn1
(b) C[n+]1ccn(CCCCn2cc[n+](C)c2)c1.c1c[n-]cn1.c1c[n-]cn1
(c) CCn1cc[n+](C)c1.c1c[n-]cn1 [1-ethyl-3-methylimidazolium imidazolide]
Sort by electrical conductivity, descending. Kindly provide the labels arranged according to the requested ordering.
c, b, a

----------
conditions: 293.15 K; 101.33 kPa; Liquid; Pycnometric method
PROPERTY_NAME: mass density (kg/m3)

compound="C[n+]1ccn(CCO)c1.c1c[n-]cn1 [1-(2-hydroxyethyl)-3-methylimidazolium imidazolide]" property_name="mass density" quantitative_result=1301
compound="C[n+]1ccn(CCCN)c1.c1c[n-]cn1 [1-(3-aminopropyl)-3-methylimidazolium imidazolide]" property_name="mass density" quantitative_result=1148.4
compound=C[n+]1ccn(CCn2cc[n+](C)c2)c1.c1c[n-]cn1.c1c[n-]cn1 property_name="mass density" quantitative_result=1210.8
compound=C[n+]1ccn(CCCCn2cc[n+](C)c2)c1.c1c[n-]cn1.c1c[n-]cn1 property_name="mass density" quantitative_result=1177.4
compound="CCCCn1cc[n+](C)c1.c1c[n-]cn1 [1-butyl-3-methylimidazolium imidazolide]" property_name="mass density" quantitative_result=1085.3
compound="CCn1cc[n+](C)c1.c1c[n-]cn1 [1-ethyl-3-methylimidazolium imidazolide]" property_name="mass density" quantitative_result=1113.5

----------
conditions: 323.15 K; 101.33 kPa; Liquid; Capillary tube (Ostwald / Ubbelohde) method
PROPERTY_NAME: viscosity (mPa·s)

compound="C[n+]1ccn(CCCN)c1.c1c[n-]cn1 [1-(3-aminopropyl)-3-methylimidazolium imidazolide]" quantitative_result=32.1

(A) C[n+]1ccn(CCCCn2cc[n+](C)c2)c1.c1c[n-]cn1.c1c[n-]cn1
(B) C[n+]1ccn(CCO)c1.c1c[n-]cn1 [1-(2-hydroxyethyl)-3-methylimidazolium imidazolide]
(C) CCCCn1cc[n+](C)c1.c1c[n-]cn1 [1-butyl-3-methylimidazolium imidazolide]
With regard to viscosity, arrange the entries in ascending order, please. Note for the reader: the ranking is given by listing the labels in the order requested.
C, A, B
(C: 76.8 mPa·s, A: 427.1 mPa·s, B: 1255 mPa·s)

(1) C[n+]1ccn(CCn2cc[n+](C)c2)c1.c1c[n-]cn1.c1c[n-]cn1
(2) CCn1cc[n+](C)c1.c1c[n-]cn1 [1-ethyl-3-methylimidazolium imidazolide]
Lab note: record which item had the higher viscosity, 1 or 2 . To answer, give the label that identifies your chosen option.
1

----------
settings: 333.15 K; 101.33 kPa; Liquid; Pycnometric method
PROPERTY_NAME: mass density (kg/m3)

compound="CCn1cc[n+](C)c1.c1c[n-]cn1 [1-ethyl-3-methylimidazolium imidazolide]" quantitative_result=1086.3
compound="CCCCn1cc[n+](C)c1.c1c[n-]cn1 [1-butyl-3-methylimidazolium imidazolide]" quantitative_result=1060.4
compound=C[n+]1ccn(CCCCn2cc[n+](C)c2)c1.c1c[n-]cn1.c1c[n-]cn1 quantitative_result=1154.3
compound="C[n+]1ccn(CCO)c1.c1c[n-]cn1 [1-(2-hydroxyethyl)-3-methylimidazolium imidazolide]" quantitative_result=1278.1
compound="C[n+]1ccn(CCCN)c1.c1c[n-]cn1 [1-(3-aminopropyl)-3-methylimidazolium imidazolide]" quantitative_result=1126.3
compound=C[n+]1ccn(CCn2cc[n+](C)c2)c1.c1c[n-]cn1.c1c[n-]cn1 quantitative_result=1185.7

----------
settings: 313.15 K; 101.33 kPa; Liquid; Pycnometric method
PROPERTY_NAME: mass density (kg/m3)

compound=C[n+]1ccn(CCn2cc[n+](C)c2)c1.c1c[n-]cn1.c1c[n-]cn1 quantitative_result=1200
compound=C[n+]1ccn(CCCCn2cc[n+](C)c2)c1.c1c[n-]cn1.c1c[n-]cn1 quantitative_result=1166.9
compound="CCCCn1cc[n+](C)c1.c1c[n-]cn1 [1-butyl-3-methylimidazolium imidazolide]" quantitative_result=1073.2
compound="C[n+]1ccn(CCO)c1.c1c[n-]cn1 [1-(2-hydroxyethyl)-3-methylimidazolium imidazolide]" quantitative_result=1289.8
compound="C[n+]1ccn(CCCN)c1.c1c[n-]cn1 [1-(3-aminopropyl)-3-methylimidazolium imidazolide]" quantitative_result=1137.5
compound="CCn1cc[n+](C)c1.c1c[n-]cn1 [1-ethyl-3-methylimidazolium imidazolide]" quantitative_result=1100.3

----------
settings: 303.15 K; 101.33 kPa; Liquid; Alternating current cell with electrodes
PROPERTY_NAME: electrical conductivity (S/m)

Sample answers from the record:
compound="C[n+]1ccn(CCO)c1.c1c[n-]cn1 [1-(2-hydroxyethyl)-3-methylimidazolium imidazolide]" property_name="electrical conductivity" quantitative_result=0.000636
compound=C[n+]1ccn(CCn2cc[n+](C)c2)c1.c1c[n-]cn1.c1c[n-]cn1 property_name="electrical conductivity" quantitative_result=0.0309
compound="CCn1cc[n+](C)c1.c1c[n-]cn1 [1-ethyl-3-methylimidazolium imidazolide]" property_name="electrical conductivity" quantitative_result=0.487
compound="CCCCn1cc[n+](C)c1.c1c[n-]cn1 [1-butyl-3-methylimidazolium imidazolide]" property_name="electrical conductivity" quantitative_result=0.15

(P) C[n+]1ccn(CCCCn2cc[n+](C)c2)c1.c1c[n-]cn1.c1c[n-]cn1
(Q) C[n+]1ccn(CCCN)c1.c1c[n-]cn1 [1-(3-aminopropyl)-3-methylimidazolium imidazolide]
Hi there! Just curious which has the higher electrical conductivity between P and Q . Returns: label corresponding to the selected item.
Q
(Q: 0.166 S/m, P: 0.0686 S/m)

----------
details: 303.15 K; 101.33 kPa; Liquid; Pycnometric method
PROPERTY_NAME: mass density (kg/m3)

compound="C[n+]1ccn(CCO)c1.c1c[n-]cn1 [1-(2-hydroxyethyl)-3-methylimidazolium imidazolide]" property_name="mass density" quantitative_result=1295.7
compound="C[n+]1ccn(CCCN)c1.c1c[n-]cn1 [1-(3-aminopropyl)-3-methylimidazolium imidazolide]" property_name="mass density" quantitative_result=1143.1
compound="CCCCn1cc[n+](C)c1.c1c[n-]cn1 [1-butyl-3-methylimidazolium imidazolide]" property_name="mass density" quantitative_result=1079.9
compound=C[n+]1ccn(CCCCn2cc[n+](C)c2)c1.c1c[n-]cn1.c1c[n-]cn1 property_name="mass density" quantitative_result=1172.8
compound="CCn1cc[n+](C)c1.c1c[n-]cn1 [1-ethyl-3-methylimidazolium imidazolide]" property_name="mass density" quantitative_result=1106.7
compound=C[n+]1ccn(CCn2cc[n+](C)c2)c1.c1c[n-]cn1.c1c[n-]cn1 property_name="mass density" quantitative_result=1206
